Every entry's value here was drawn from patent US6673938B1.

Tested on: Monocotyledonous and dicotyledonous test plants
Assay: Herbicidal action before emergence of the plants (pre-emergence action)
Assay type: in vivo
Settings: Sinapis; 2000 g/ha; evaluated after 3 weeks; nine-step scale
Provide the recorded pre-emergence action, Sinapis for the entries that follow.
# respond with the number and nothing more

## Task # query: pre-emergence action, Sinapis of entry COC(=O)C1(C)CCC(=O)C(C(=O)c2ccc(C(F)(F)F)nc2C)=C1O (stereo not drawn)
## Result 2

## Task Entry CCC1(C)CC(C)C(=O)C(C(=O)c2ccc(C(F)(F)F)nc2C)=C1O (stereo not drawn) please
## Result 2

## Task Entry COC1(C)CCC(=O)C(C(=O)c2ccc(C(F)(F)F)nc2C)=C1O (stereo not drawn) please
## Result 2
